Exercise: for every item that follows, state its recorded half-life at 50 µM.
- Assay protocol: Half life in Wistar rat liver homogenates at 50 uM by HPLC analysis
- Type: ADME, tissue-based
Field: numeric (h). Do not append units.

Per the record, `Nc1nc2c(ncn2[C@@H]2O[C@H](CO)[C@@H](O)[C@H]2O)c(=O)[nH]1` has half-life at 50 µM of 0.00403

Per the record, `CCOP(=O)(CC(=O)OC[C@H]1O[C@@H](n2cnc3c(=O)[nH]c(N)nc32)[C@H](O)[C@@H]1O)OCC` has half-life at 50 µM of 2.33

###

- Assay protocol: Metabolic stability in human whole blood assessed as compound degradation after 6 hrs by HPLC analysis
- Type: ADME, tissue-based
- Measurement conditions: whole blood, read-out: Drug degradation
Observation type: metabolised at 6 h
Reply with a number, then the unit it belongs to.

Per the record, `CCOP(=O)(CC(=O)OC[C@H]1O[C@@H](n2cnc3c(=O)[nH]c(N)nc32)[C@H](O)[C@@H]1O)OCC` has metabolised at 6 h of 20%

###

- Assay protocol: Metabolic stability in Wistar rat liver homogenates assessed as compound degradation at 50 uM after 6 hrs by HPLC analysis
- Type: ADME, tissue-based
- Measurement conditions: Wistar, liver homogenates, read-out: Drug degradation
Observation type: metabolised at 6 h, 50 µM (%)
Field: numeric (%). Do not append units.

Per the record, `CCOP(=O)(CC(=O)OC[C@H]1O[C@@H](n2cnc3c(=O)[nH]c(N)nc32)[C@H](O)[C@@H]1O)OCC` has metabolised at 6 h, 50 µM of 80
